Biological target: PDE4B2: full-length human PDE4B2 isozyme (Homo sapiens)
Sequence (Q07343 with tags, fused parts or gaps isoform Q07343-2): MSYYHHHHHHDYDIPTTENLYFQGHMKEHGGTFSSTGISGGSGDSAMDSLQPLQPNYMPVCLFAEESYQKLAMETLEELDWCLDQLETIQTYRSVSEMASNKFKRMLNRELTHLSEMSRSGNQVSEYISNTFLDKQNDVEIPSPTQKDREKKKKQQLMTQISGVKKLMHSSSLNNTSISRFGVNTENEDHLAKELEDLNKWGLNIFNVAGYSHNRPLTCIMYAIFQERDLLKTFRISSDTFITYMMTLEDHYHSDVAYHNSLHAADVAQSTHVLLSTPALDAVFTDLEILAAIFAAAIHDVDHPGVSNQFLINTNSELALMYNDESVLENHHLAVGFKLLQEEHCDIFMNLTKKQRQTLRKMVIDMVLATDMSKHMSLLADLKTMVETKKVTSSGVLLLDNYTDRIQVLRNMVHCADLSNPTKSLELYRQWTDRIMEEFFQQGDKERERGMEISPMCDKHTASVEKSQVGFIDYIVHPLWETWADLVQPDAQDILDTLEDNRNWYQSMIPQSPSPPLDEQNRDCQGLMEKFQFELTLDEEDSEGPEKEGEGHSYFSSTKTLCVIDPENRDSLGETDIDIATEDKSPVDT
Test: PDE4 IC50 determination by Scintillation Proximity Assay (SPA), full-length PDE4B2
Conditions: cell lysate, [3H]cAMP SPA
Method: The enzyme was not purified from the cell lysates, so enzyme concentrations were not determined. Enzyme was stored in 50% glycerol at −20°. IC50s were determined by Scintillation Proximity Assay (SPA). […] Thus, the extent of PDE4 hydrolysis of a sample of [^3H]cAMP can be measured because only the [^3H]AMP produced by PDE4 hydrolysis will bind to the SPA beads and produce a scintillation signal. […]
pIC50: −log10 of the molar value.
observable: pIC50

In: Field request: pIC50 | item: COc1ccc(-c2cn(C(=O)Nc3ccc(Cl)c(Cl)c3)c3ncccc23)cc1OC [Compound 37]
Out: > 5.00

In: Same lookup for COc1ccc(-c2cn(C(=O)c3ccnc4ccccc34)c3ncccc23)cc1OC [Compound 115] , please.
Out: > 5.00

In: Same lookup for COc1cccc(NC(=O)n2cc(-c3ccc(OC)c(OC)c3)c3cccnc32)c1 [Compound 32] , please.
Out: > 5.00

In: Same lookup for CSc1nccc(-c2cn(S(=O)(=O)c3cccc4cccnc34)c3ncccc23)n1 [Compound 46] , please.
Out: > 5.00

In: Same lookup for COc1ccc(-c2cn(S(=O)(=O)c3ccc(-c4cnco4)cc3)c3ncccc23)cc1OC [Compound 70] , please.
Out: > 5.00

Hi there! I need pIC50 for each item below, if you can.
1. COc1ccc(-c2cnc3c(c2)c(C#Cc2ccccc2)cn3S(=O)(=O)c2ccccc2)cc1OC [Compound 136]
2. CCOC(=O)c1ccc(NC(=O)n2cc(-c3ccc(OC)c(OC)c3)c3cccnc32)cc1 [Compound 33]
3. COc1ccc(-c2cn(S(=O)(=O)c3ccccc3)c3ncccc23)cc1OC1CCCC1 [Compound 101]

Out:
1: > 5.00; 2: > 5.00; 3: > 5.00

These measurements were taken from patent US7605168B2.
